ASSAYED_SYSTEM: Aspartate--tRNA(Asp/Asn) ligase (Mycobacterium tuberculosis (strain ATCC 25618 / H37Rv)) (UniProt P9WFW3)
Sequence (P9WFW3 whole entry): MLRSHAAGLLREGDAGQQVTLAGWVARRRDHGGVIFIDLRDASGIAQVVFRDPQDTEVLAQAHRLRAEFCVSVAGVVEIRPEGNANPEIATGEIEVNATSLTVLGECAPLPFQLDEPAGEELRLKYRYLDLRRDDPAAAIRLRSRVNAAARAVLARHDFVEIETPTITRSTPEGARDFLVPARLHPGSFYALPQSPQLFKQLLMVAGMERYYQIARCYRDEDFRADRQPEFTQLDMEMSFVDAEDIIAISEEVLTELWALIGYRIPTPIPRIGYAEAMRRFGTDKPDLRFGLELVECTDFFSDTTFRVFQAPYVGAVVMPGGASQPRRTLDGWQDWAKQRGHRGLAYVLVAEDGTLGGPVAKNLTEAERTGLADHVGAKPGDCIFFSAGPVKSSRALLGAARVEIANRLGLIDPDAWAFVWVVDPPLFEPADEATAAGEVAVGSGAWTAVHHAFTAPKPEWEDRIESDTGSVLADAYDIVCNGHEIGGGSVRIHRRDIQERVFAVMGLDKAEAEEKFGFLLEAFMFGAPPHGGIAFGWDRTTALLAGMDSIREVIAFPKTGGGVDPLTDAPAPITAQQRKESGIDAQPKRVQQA
ASSAY_TEXT: Assay for Asp RNA synthetase-1 from Mycobacterium tuberculosis
Assay type: functional
Set-up: scale not given: in the data most compounds retested in dose-response had high values
STUDY_CONDITIONS: 30 µM
For each of the molecules below, state its Percent Effect.
Hi! Could you send only the number? It should be in %, unit omitted.

Exam item: Please give the measured Percent Effect for this molecule: Cc1cccnc1C(=O)N1CCCCC1c1[nH]ncc1S(C)(=O)=O (stereo not drawn)
Marked response: 5.01

Exam item: Please give the measured Percent Effect for this molecule: Cc1ccc(OCC(=O)NCC(C)C)nc1
Marked response: -3.37

Exam item: Please give the measured Percent Effect for this molecule: Cc1cc(C)n(C2CN(CC(=O)NC3CCOCC3)C2)n1
Marked response: -1.88

Exam item: Please give the measured Percent Effect for this molecule: Cc1nc(CN2C(=O)COC3(CCN(Cc4ccco4)CC3)C2C)cs1 (stereo not drawn)
Marked response: -2.99

Exam item: Please give the measured Percent Effect for this molecule: CN1CCCC1CNC(=O)CCCOCc1ccccc1 (stereo not drawn)
Marked response: 0.589

Exam item: Please give the measured Percent Effect for this molecule: COc1ccc(F)c(CN2CCC3(CCC(=O)N(CC(N)=O)C3)CC2)c1
Marked response: -3.94

Exam item: Please give the measured Percent Effect for this molecule: CC(C)(NCC(=O)NCCC#N)c1ccc2c(c1)OCCO2
Marked response: 11.1

Exam item: Please give the measured Percent Effect for this molecule: Cn1cnc(S(=O)(=O)N2CCCC2)c1Cl
Marked response: -1.03

Exam item: Please give the measured Percent Effect for this molecule: CCOc1ccccc1C(CC(=O)Nc1nc(C)cs1)NC(C)=O (stereo not drawn)
Marked response: -0.233

Exam item: Please give the measured Percent Effect for this molecule: O=C(NCC1CC1)C1CN(C(=O)c2cccs2)CC12CCOCC2 (stereo not drawn)
Marked response: 5.88

Exam item: Please give the measured Percent Effect for this molecule: COc1ccc(-c2nccnc2C2CCN(C(C)=O)CC2)cc1
Marked response: 0.0149

Exam item: Please give the measured Percent Effect for this molecule: Cc1cc(-c2nnn(CCNS(C)(=O)=O)n2)ccc1F
Marked response: -2.07

Exam item: Please give the measured Percent Effect for this molecule: CC(C)N1CCCC(CCCc2ccccn2)(C(=O)O)C1 (stereo not drawn)
Marked response: 1.98

Exam item: Please give the measured Percent Effect for this molecule: COCC1CN(C(=O)C2=CCCCC2)Cc2cnn(CC3CC3)c21 (stereo not drawn)
Marked response: 0.918

Exam item: Please give the measured Percent Effect for this molecule: CC(=O)N1CCCCC1c1nc2c(c(N3CCCCC3)n1)CN(C)CC2 (stereo not drawn)
Marked response: -1.98

Exam item: Please give the measured Percent Effect for this molecule: Cc1nc(C2CCCN(C(=O)CCCn3ccnc3C)C2)no1 (stereo not drawn)
Marked response: -1

Exam item: Please give the measured Percent Effect for this molecule: Cc1cc(C)n(C2CN(CC(=O)NCC(C)(C)N3CCOCC3)C2)n1
Marked response: -2.72

Exam item: Please give the measured Percent Effect for this molecule: Cc1c(C(=O)NCC2CCCO2)nnn1-c1cccc2c1CCN(C)C2 (stereo not drawn)
Marked response: 3.06

Exam item: Please give the measured Percent Effect for this molecule: Cc1nc(C)n(CC2CN(CC(=O)Nc3nccs3)CCO2)n1 (stereo not drawn)
Marked response: -3.2

Exam item: Please give the measured Percent Effect for this molecule: Clc1ccc2oc(C3CCN(Cc4cccnc4)CC3)nc2c1
Marked response: 1.26

Exam item: Please give the measured Percent Effect for this molecule: COCCN1C[C@@H]2CCCO[C@@H]2[C@H](NC(=O)c2cnccn2)C1
Marked response: 3.03

Exam item: Please give the measured Percent Effect for this molecule: CN(CCCc1cnn(C)c1)C(=O)C1COc2ccccc2C1 (stereo not drawn)
Marked response: 11.4

Exam item: Please give the measured Percent Effect for this molecule: CCS(=O)(=O)N[C@@H]1CN(Cc2cc(C)on2)C[C@@H]2CCCO[C@@H]21
Marked response: 4.25

Exam item: Please give the measured Percent Effect for this molecule: Cc1ccc(CNC(c2ccccc2)c2nccn2C)cc1C (stereo not drawn)
Marked response: 1.11

Exam item: Please give the measured Percent Effect for this molecule: O=C1CO[C@@H]2CN(Cc3cccs3)C[C@H]2N1CC1CC1
Marked response: 12.1

Exam item: Please give the measured Percent Effect for this molecule: Cc1ccc2nc(C3CCN(CCO)CC3)nn2c1
Marked response: 2.18

Exam item: Please give the measured Percent Effect for this molecule: CC(C)c1nccn1C1CCCN(C(=O)c2ccc3c(c2)OCO3)C1 (stereo not drawn)
Marked response: -0.317

Exam item: Please give the measured Percent Effect for this molecule: COc1ncccc1NC(=O)N(Cc1ccc(C)o1)C1CC1
Marked response: -0.455

Exam item: Please give the measured Percent Effect for this molecule: O=C(N1CCOCC1)[C@@]12CCO[C@@H]1CCN(CC1CCCCC1)C2
Marked response: -2.47

Exam item: Please give the measured Percent Effect for this molecule: Cc1cc(CN2CCN(C(=O)Nc3cccnc3)CC2)on1
Marked response: -2.97

Exam item: Please give the measured Percent Effect for this molecule: Cc1cnn(C2CN(Cc3nc(C(C)(C)C)no3)C2)c1
Marked response: -0.0303

Exam item: Please give the measured Percent Effect for this molecule: O=S(=O)(CCNC1CCc2ncnn2C1)c1ccccc1 (stereo not drawn)
Marked response: 1.06

Exam item: Please give the measured Percent Effect for this molecule: COc1ccccc1OCCN1CCCC(c2cc(C(N)=O)[nH]n2)C1 (stereo not drawn)
Marked response: 0.0735

Exam item: Please give the measured Percent Effect for this molecule: O=C(c1cccc(OC2CCCC2)c1)N1CCCC(n2cncn2)C1 (stereo not drawn)
Marked response: -0.0372

Exam item: Please give the measured Percent Effect for this molecule: O=C(NCc1ccco1)[C@H]1C[C@H]2OCC[C@H]2N(C(=O)c2ccco2)C1
Marked response: 3.58

Exam item: Please give the measured Percent Effect for this molecule: CC(C)N1CCC(Cc2cnc(-c3cccc(C(=O)O)c3)cn2)C1 (stereo not drawn)
Marked response: -5.2

Exam item: Please give the measured Percent Effect for this molecule: CN(C)C(=O)CCC(=O)NCc1cccnc1-n1cnc2ccccc21
Marked response: -3.48

Exam item: Please give the measured Percent Effect for this molecule: Cc1ccc(CN2CCc3ncnc(-c4ccc(F)cc4)c3CC2)o1
Marked response: 5.12

Exam item: Please give the measured Percent Effect for this molecule: CNC(=O)C1(CCCc2cccnc2)CCCCN1 (stereo not drawn)
Marked response: 0.849

Exam item: Please give the measured Percent Effect for this molecule: c1cnc(N2CCC3(CC2)CN(CC2CC2)c2ccccc23)nc1
Marked response: 3.62

Exam item: Please give the measured Percent Effect for this molecule: Cc1ccccc1CNC(=O)Cc1c(C)nc2cc(=O)[nH]n2c1C
Marked response: -0.856

Exam item: Please give the measured Percent Effect for this molecule: O=C(Cc1cccc(F)c1)NCCNCc1ccco1
Marked response: 0.577

Exam item: Please give the measured Percent Effect for this molecule: CCCN1CCN(C(=O)c2scnc2C)CC1
Marked response: -0.389

Exam item: Please give the measured Percent Effect for this molecule: CCC1(CC)Cc2ccccc2-c2nc(NCCO)[nH]c(=O)c21
Marked response: 6.5

Exam item: Please give the measured Percent Effect for this molecule: CC(C)c1nnc2ccc(N3CCC(C(=O)Nc4nccs4)CC3)nn12
Marked response: -2.93

Exam item: Please give the measured Percent Effect for this molecule: Cn1cnc(S(=O)(=O)NCCCN2CCOCC2)c1Cl
Marked response: 3.04

Exam item: Please give the measured Percent Effect for this molecule: O=C(Cc1ccccc1F)N1CCN(C(=O)c2cccc(F)c2)CC1
Marked response: 23.6

Exam item: Please give the measured Percent Effect for this molecule: COc1cc(C)c(C(C)NC(=O)Nc2nnc(C)s2)cc1OC (stereo not drawn)
Marked response: -7.26
